test: Pharmacokinetic study in mice; format: in vivo; conditions: mouse, po; male mice, p.o. (10 mg/kg), plasma; read-out: Cmax
Measure name: Cmax

Ask | Which Cmax value is on record for Cn1c(=O)n(C2CCC(=O)NC2=O)c2cccc(C#CCO[C@H]3CC[C@@H](CN4CCC5(CC4)Cc4cc(NC(=O)c6cnn7cccnc67)c(N6CCC(CO)CC6)cc4O5)CC3)c21 (relative stereo) ?
Reply | 1120 ng/mL

Ask | Repeat for the following molecule: Cn1c(=O)n(C2CCC(=O)NC2=O)c2cccc(CN3CCC(CCN4CCC5(CC4)Oc4cc(NC(=O)c6cnn7cccnc67)c(N6CCC(CO)CC6)cc4O5)CC3)c21 (stereo not shown)
Reply | 1320 ng/mL

Ask | Repeat for the following molecule: Cn1c(=O)n(C2CCC(=O)NC2=O)c2cccc(C#CCO[C@H]3CC[C@H](CN4CCC5(CC4)Cc4cc(NC(=O)c6cnn7cc(Cl)cnc67)c(N6CCC(CO)CC6)cc4O5)CC3)c21 (stereo partly shown)
Reply | 2150 ng/mL

Ask | Repeat for the following molecule: Cn1nc(N2CCC(=O)NC2=O)c2cc(F)c(N3CCC(O)(CC(=O)N4CCC5(CC4)Cc4cc(NC(=O)c6cnn7cccnc67)c(N6CCC(CO)CC6)cc4O5)CC3)cc21
Reply | 4830 ng/mL

Origin of values: patent EP4725946A1
